# RUN_DESCRIPTION: Clearance in cynomolgus monkey at 1 mg/kg, iv
# Format: ADME, organism-based, Macaca fascicularis
# Set-up: dose 1 mg/kg, route intravenous
# TEST_PARAMETERS: in vivo

# TEST_SMILES, clearance
measured = [
    ("CC(C)N(C)[C@@H]1CC[C@H](N2CC[C@H](NC(=O)c3cccc(C(F)(F)F)c3)C2=O)[C@H](CS(C)(=O)=O)C1", "14 mL/min/kg"),
    ("CC(C)N(C)[C@@H]1CC[C@H](N2CC[C@H](NC(=O)c3cccc(C(F)(F)F)c3)C2=O)[C@H](CS(=O)(=O)C(C)(C)C)C1", "12 mL/min/kg"),
]

----------
# ASSAYED_TARGET: C-C chemokine receptor type 2 (Homo sapiens, UniProt P41597)
# Sequence (P41597 whole entry): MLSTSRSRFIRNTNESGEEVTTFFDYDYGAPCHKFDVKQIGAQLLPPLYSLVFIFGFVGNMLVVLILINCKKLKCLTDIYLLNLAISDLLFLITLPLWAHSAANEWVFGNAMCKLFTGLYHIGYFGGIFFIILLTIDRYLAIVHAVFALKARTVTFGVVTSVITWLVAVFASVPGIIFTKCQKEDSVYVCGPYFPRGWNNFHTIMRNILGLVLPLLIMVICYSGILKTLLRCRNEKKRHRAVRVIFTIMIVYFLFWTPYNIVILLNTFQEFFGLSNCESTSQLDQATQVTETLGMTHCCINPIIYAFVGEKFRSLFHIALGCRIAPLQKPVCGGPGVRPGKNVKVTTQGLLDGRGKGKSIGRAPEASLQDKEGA
# RUN_DESCRIPTION: Displacement of [125I]-labeled human MCP1 from CCR2 in human PBMC

# TEST_SMILES, ASSAYED_TARGET, READOUT_UNIT, IC50
data = [
    ("CC(C)N(C)[C@@H]1CC[C@H](N2CC[C@H](NC(=O)c3cccc(C(F)(F)F)c3)C2=O)[C@H](CS(C)(=O)=O)C1", "C-C chemokine receptor type 2 (Homo sapiens, UniProt P41597)", "nM", 1.8),
    ("CC(C)N(C)[C@@H]1CC[C@H](N2CC[C@H](NC(=O)c3cc(F)cc(C(F)(F)F)c3)C2=O)[C@H](CS(=O)(=O)C(C)(C)C)C1", "C-C chemokine receptor type 2 (Homo sapiens, UniProt P41597)", "nM", 1.3),
    ("CC(C)N(C)[C@@H]1CC[C@H](N2CC[C@H](NC(=O)c3cccc(C(C)(C)C)c3)C2=O)[C@H](CS(=O)(=O)C(C)C)C1", "C-C chemokine receptor type 2 (Homo sapiens, UniProt P41597)", "nM", 0.5),
    ("CC(C)N(C)[C@@H]1CC[C@H](N2CC[C@H](NC(=O)c3cccc(OC(F)(F)F)c3)C2=O)[C@H](CS(C)(=O)=O)C1", "C-C chemokine receptor type 2 (Homo sapiens, UniProt P41597)", "nM", 5),
    ("CC(C)N(C)[C@@H]1CC[C@H](N2CC[C@H](NC(=O)c3cccc(C(F)(F)F)n3)C2=O)[C@H](CS(C)(=O)=O)C1", "C-C chemokine receptor type 2 (Homo sapiens, UniProt P41597)", "nM", 2.2),
    ("CCS(=O)(=O)C[C@@H]1C[C@H](N(C)C(C)C)CC[C@@H]1N1CC[C@H](NC(=O)c2cccc(C(F)(F)F)c2)C1=O", "C-C chemokine receptor type 2 (Homo sapiens, UniProt P41597)", "nM", 1.2),
    ("CC(C)N(C)[C@@H]1CC[C@H](N2CC[C@H](NC(=O)c3cccc(C(C)(C)C)c3)C2=O)[C@H](CS(C)(=O)=O)C1", "C-C chemokine receptor type 2 (Homo sapiens, UniProt P41597)", "nM", 1.2),
    ("CC(C)N(C)[C@@H]1CC[C@H](N2CC[C@H](NC(=O)c3cccc(C(F)(F)F)c3)C2=O)[C@H](CS(=O)(=O)C(C)C)C1", "C-C chemokine receptor type 2 (Homo sapiens, UniProt P41597)", "nM", 0.34),
    ("CC(C)N(C)[C@@H]1CC[C@H](N2CC[C@H](NC(=O)c3cccc(C(F)(F)F)c3)C2=O)[C@H](CS(=O)(=O)C(C)(C)C)C1", "C-C chemokine receptor type 2 (Homo sapiens, UniProt P41597)", "nM", 0.96),
]
